System: NCI-H23 lung
Test: NCI tumour cell line growth inhibition, 48 h; in the data active = GI50 below about 0.43 µM; inactive = the rest
A correct response names exactly one class from active, inactive

{"molecule": "Ic1ccccc1-c1ccccc1", "cat": "inactive"}
{"molecule": "O=c1ccn(C2OC(CO/N=C/c3ccc(O)c(O)c3O)C(O)C2O)c(=O)[nH]1 (stereo not drawn)", "cat": "inactive"}
{"molecule": "CC(=O)[CH-]C(=O)c1ccccc1.CC(=O)[CH-]C(=O)c1ccccc1.CC(C)CCCC(C)[C@H]1CCC2[C@@H]3CC=C4C[C@@H]([O-])CC[C@]4(C)C3CC[C@@]21C.CC[O-].[Ti+4] (stereo partly drawn)", "cat": "inactive"}
{"molecule": "COc1cc(-c2nn(-c3cccc(NC(=O)Nc4cc(C(F)(F)F)cc(C(F)(F)F)c4)c3)cc2-c2ccncc2)ccc1Cl", "cat": "inactive"}
{"molecule": "COC1CC2CCC(C)C(O)(O2)C(=O)C(=O)N2CCCCC2C(=O)OC(C(C)CC2CCC(O)C(OC)C2)CC(=O)C(C)C=C(C)C(O)C(OC)C(=O)C(C)CC(C)/C=C/C=C/C=C1C (stereo not drawn)", "cat": "active"}

Task: Could you please tell me the result logged for CCOC(=O)c1[nH]c(Br)c(-c2ccc(Br)cc2)c1Br in this assay?
Result: inactive

Task: Could you please tell me the result logged for COc1ccc(/C=C/C(=O)c2ccc(SC)cc2)cc1OC in this assay?
Result: inactive

Task: Could you please tell me the result logged for O=C1CCCCCCCC/C=C\CC(c2ccco2)O1 (stereo not drawn) in this assay?
Result: inactive

Task: Could you please tell me the result logged for Cc1ccc(-n2c3c(c4c(CN(C)C)c(O)ccc42)CCc2ccccc2C3=O)cc1 in this assay?
Result: inactive

Task: Could you please tell me the result logged for Cc1c(-c2c(-c3ccc(F)o3)sc3ncnc(O[C@H](Cc4ccccc4OCc4ccnn4CC(F)(F)F)C(=O)O)c23)ccc(OCCN2CCN(C)CC2)c1Cl in this assay?
Result: inactive

* * *

Test system: CAKI-1 renal
Assay: NCI tumour cell line growth inhibition, 48 h
Provide the recorded log10 of TGI for the entries that follow.
Friendly reminder: values = log10 of TGI, unit µM.

{"molecule": "O=C1c2ccccc2C(=O)[C@@]23O[C@@]12C1(Oc2cccc4cccc(c24)O1)[C@@H]1O[C@@H]1[C@@H]3O", "experimentalSystem": "CAKI-1 renal", "quantityMeasured": "log10 of TGI", "number": 1.39}
{"molecule": "COC(=O)C1(c2cc3ccccc3n2S(=O)(=O)c2ccccc2)CC2C=CC1NC2 (stereo not given)", "experimentalSystem": "CAKI-1 renal", "quantityMeasured": "log10 of TGI", "number": 0.63}
{"molecule": "NNC(=O)c1ccccc1NC(=O)/C(=C/c1ccccc1O)NC(=O)c1ccccc1", "experimentalSystem": "CAKI-1 renal", "quantityMeasured": "log10 of TGI", "number": 1.50}
{"molecule": "COc1cc(/C=C2\\C[C@H]3[C@@H]4CC=C5C=C(N6CCCC6)CC[C@]5(C)[C@H]4CC[C@]3(C)C2=O)cc(OC)c1OC", "experimentalSystem": "CAKI-1 renal", "quantityMeasured": "log10 of TGI", "number": 0.88}
{"molecule": "Cn1c(=O)nc2n(-c3cccc(Br)c3)c3ccccc3nc-2c1=O", "experimentalSystem": "CAKI-1 renal", "quantityMeasured": "log10 of TGI", "number": 1.51}
{"molecule": "CC1=C2C[C@H]3[C@@H](CC[C@@H]4CC(NS(C)(=O)=O)CC[C@@]43C)[C@@H]2CC[C@@]2(C1)O[C@@H]1C[C@H](C)CN[C@H]1[C@H]2C (stereo not given in full)", "experimentalSystem": "CAKI-1 renal", "quantityMeasured": "log10 of TGI", "number": 1.34}

Task: Which measured log10 of TGI value corresponds to O/C(=C\c1nc2ccccc2nc1/C=C(\O)c1ccc(Cl)cc1)c1ccccc1 ?
Result: 1.82

* * *

Provide the recorded GI50 for the entries that follow.
Tested on: HS 578T breast
Experiment: NCI tumour cell line growth inhibition, 48 h

{"compound": "CCOc1ccc(-c2nonc2NC(=O)c2cccc(C)c2)cc1OCC", "result": "> 100 µM"}
{"compound": "Ic1ccccc1-c1ccccc1", "result": "> 100 µM"}
{"compound": "O=C1CCCCCCCC/C=C\\CC(c2ccco2)O1 (stereo not drawn)", "result": "32.4 µM"}

Provide each entry's GI50 from the list below.
1. O=C1C(Cl)=C(Nc2cccc(Cl)c2)C(=O)N1Cc1ccccc1Cl
2. O=C(Nc1cccc(Cl)c1)c1ccc(NC2=C(Cl)C(=O)N(Cc3ccccc3)C2=O)cc1

Result:
1: 9.4 µM; 2: 18.6 µM

Provide each entry's GI50 from the list below.
1. C=CC(=O)N1CCN(c2nc(=O)n(-c3c(C)ccnc3C(C)C)c3nc(-c4c(O)cccc4F)c(F)cc23)[C@@H](C)C1
2. COC1CC2CCC(C)C(O)(O2)C(=O)C(=O)N2CCCCC2C(=O)OC(C(C)CC2CCC(O)C(OC)C2)CC(=O)C(C)C=C(C)C(O)C(OC)C(=O)C(C)CC(C)/C=C/C=C/C=C1C (stereo not drawn)
3. O=C(Nc1cc(Cl)cc(Cl)c1)c1ccc(NC2=C(Cl)C(=O)N(Cc3ccc(Cl)cc3Cl)C2=O)cc1
4. O=C(c1ccco1)c1nc2cc(Cl)ccc2[n+]([O-])c1C(F)(F)F
5. O=c1ccn(C2OC(CO/N=C/c3ccc(O)c(O)c3O)C(O)C2O)c(=O)[nH]1 (stereo not drawn)
6. CC(C)(O)CS(=O)(=O)Nc1ccc2c(c1)CCN(C(=O)COc1cccnc1)C2
7. CC1=C2C[C@H]3[C@@H](CC[C@@H]4CC(NS(C)(=O)=O)CC[C@@]43C)[C@@H]2CC[C@@]2(C1)O[C@@H]1C[C@H](C)CN[C@H]1[C@H]2C (stereo partly drawn)

Result:
45.7 µM
0.00742 µM
8.12 µM
> 100 µM
22.8 µM
> 100 µM
11.8 µM

Task: Which measured GI50 value corresponds to COc1ccccc1CCN=C1NC(=O)/C(=C/c2ccc3ncccc3c2)S1 ?
Result: 7.39 µM

* * *

System: BT-549 breast
Test: NCI tumour cell line growth inhibition, 48 h; in the data active = GI50 below about 0.43 µM; inactive = the rest
A correct response names exactly one class from Y (active), N (inactive)

{"compound": "CCC/C(=N/N=C(N)N)c1ccc(NC(=O)c2cc3cc(OC)ccc3[nH]2)cc1", "cat": "N"}

Task: Could you please tell me the result logged for Cc1cc2nc3c4cc(N)ccc4n(CCN(C)C)c3nc2cc1C in this assay?
Result: N

Task: Could you please tell me the result logged for NC(N)=N/N=C\c1cccc(OCc2ccccc2)c1 in this assay?
Result: N

Task: Could you please tell me the result logged for O=C(CN1CCN(CCCOc2c(-c3ccccc3)oc3ccccc3c2=O)CC1)Nc1ccc(Cl)cc1C(=O)c1ccccc1Cl in this assay?
Result: N

Task: Could you please tell me the result logged for CCOc1ccc(-c2nonc2NC(=O)c2cccc(C)c2)cc1OCC in this assay?
Result: N

Task: Could you please tell me the result logged for Cc1c(-c2c(-c3ccc(F)o3)sc3ncnc(O[C@H](Cc4ccccc4OCc4ccnn4CC(F)(F)F)C(=O)O)c23)ccc(OCCN2CCN(C)CC2)c1Cl in this assay?
Result: N

Task: Could you please tell me the result logged for C=CC(=O)N1CCN(c2nc(=O)n(-c3c(C)ccnc3C(C)C)c3nc(-c4c(O)cccc4F)c(F)cc23)[C@@H](C)C1 in this assay?
Result: N

* * *

Tested on: SK-MEL-5 melanoma
Assay: NCI tumour cell line growth inhibition, 48 h; in the data active = GI50 below about 0.43 µM; inactive = the rest
A correct response names exactly one class from yes (active), no (inactive)

Task: Could you please tell me the result logged for CC(=O)[CH-]C(=O)c1ccccc1.CC(=O)[CH-]C(=O)c1ccccc1.[Eu+3].[OH-].[OH3+] in this assay?
Result: no

Task: Could you please tell me the result logged for C=C1C(=O)O[C@H]2[C@H]1CC/C(Cn1cc(-c3cc(C(F)(F)F)cc(C(F)(F)F)c3)nn1)=C\CC[C@@]1(C)O[C@@H]21 in this assay?
Result: no

Task: Could you please tell me the result logged for O=C1c2cc3c(cc2-c2c1c1ccc(Cl)cc1c(=O)n2CCCNCCO)OCO3 in this assay?
Result: yes

Task: Could you please tell me the result logged for Cc1cc(S(N)(=O)=O)c(S/C(CC(C)C)=N\Nc2ccc([N+](=O)[O-])cc2)cc1Cl in this assay?
Result: no

Task: Could you please tell me the result logged for O=C(Nc1cc(Cl)cc(Cl)c1)c1ccc(NC2=C(Cl)C(=O)N(Cc3ccc(Cl)cc3Cl)C2=O)cc1 in this assay?
Result: no

* * *

System: MOLT-4 leukemia
Experiment: NCI tumour cell line growth inhibition, 48 h
quantityMeasured: TGI

Some compounds with known TGI results, for comparison:
{"compound": "Cc1c(-c2c(-c3ccc(F)o3)sc3ncnc(O[C@H](Cc4ccccc4OCc4ccnn4CC(F)(F)F)C(=O)O)c23)ccc(OCCN2CCN(C)CC2)c1Cl", "TGI": "4.71 µM"}
{"compound": "c1cc(Sc2nc(Sc3ccncc3)nc(Sc3ccncc3)n2)ccn1", "TGI": "> 100 µM"}
{"compound": "CC1(CO)OC(n2cc(C(=O)NC(=O)OCc3ccccc3)c(=O)[nH]c2=O)CC1O (stereo unspecified)", "TGI": "> 100 µM"}
{"compound": "CC(C)(C)c1cc(C(C)(C)C)c(SS(=O)(=O)O)c(O)c1O", "TGI": "0.219 µM"}
{"compound": "Clc1cc(Cc2cc(Cl)c(Cl)c3c2OCOC3)c2c(c1Cl)COCO2", "TGI": "> 100 µM"}

Provide each entry's TGI from the list below.
1. CC(C)(C)OC(=O)c1cnc(Cl)cn1
2. C=CC(=O)N1CCN(c2nc(=O)n(-c3c(C)ccnc3C(C)C)c3nc(-c4c(O)cccc4F)c(F)cc23)[C@@H](C)C1
3. N#C/C(=C/c1ccc[nH]1)P(=O)(O)O
4. CN(C)c1ccc([O][Bi]([Cl])[Cl])cc1
5. CCC1(c2c(F)c(F)c(N)c(F)c2F)CCC(=O)NC1=O (stereo unspecified)
6. C/C(=N/Nc1nc2ccccc2n1C)c1ccccn1

Result:
> 100 µM
71 µM
> 100 µM
> 100 µM
> 100 µM
> 39.1 µM
